Test system: RIVA
method.summary: growth inhibition by drug plus 177Lu-lilotomab satetraxetan (1 - RLU/untreated control) (fraction); higher = stronger inhibition
measurement.setup: 100 nM; time (day): 5; 177Lu-lilotomab satetraxetan 0.5 ug/ml
Here, each record is paired with measured growth inhibition by drug plus 177Lu-lilotomab satetraxetan data.
Returns: the value as a bare number; no unit string appended.

response.value for CCc1cncnc1N1CCN(Cc2nc3ccc(C(F)(F)F)cc3[nH]2)CC1 (field: growth inhibition by drug plus 177Lu-lilotomab satetraxetan) = 0.542

For reference, reported growth inhibition by drug plus 177Lu-lilotomab satetraxetan for CC[C@]1(O)C[C@@H]2CN(CCc3c([nH]c4ccccc34)[C@@](C(=O)OC)(c3cc4c(cc3OC)N(C)[C@H]3[C@@](O)(C(=O)OC)[C@H](OC(C)=O)[C@]5(CC)C=CCN6CC[C@]43[C@@H]65)C2)C1 stands at 0.659

Continuing:
// growth inhibition by drug plus 177Lu-lilotomab satetraxetan value for O=c1oc2c(O)c(O)cc3c(=O)oc4c(O)c(O)cc1c4c23 : 0.402

Reported growth inhibition by drug plus 177Lu-lilotomab satetraxetan ( CO[C@H]1C[C@@H]2CC[C@@H](C)[C@@](O)(O2)C(=O)C(=O)N2CCCC[C@H]2C(=O)O[C@H]([C@H](C)C[C@@H]2CC[C@@H](O)[C@H](OC)C2)CC(=O)[C@H](C)/C=C(\C)[C@@H](O)[C@@H](OC)C(=O)[C@H](C)C[C@H](C)/C=C/C=C/C=C/1C [Rapamycin (Sirolimus)] ) = 0.88

Sure, the documented growth inhibition by drug plus 177Lu-lilotomab satetraxetan for CCOC(=O)[C@@H](C)Oc1cccc2c(=O)n(CC(=O)Nc3ccc4c(c3)OCCO4)ccc12 is 0.427

----------
Tested on: RIVA
method.summary: growth inhibition by drug plus 177Lu-lilotomab satetraxetan (1 - RLU/untreated control) (fraction); higher = stronger inhibition
measurement.setup: 100 nM; time (day): 5; 177Lu-lilotomab satetraxetan 0.5 ug/ml
Counter-ions that a name gives are not always drawn.
A collection of compounds and their measured growth inhibition by drug plus 177Lu-lilotomab satetraxetan

Memo: CN(C)C[C@@H]1CCn2cc(c3ccccc32)C2=C(C(=O)NC2=O)c2cn(c3ccccc23)CCO1 , reported growth inhibition by drug plus 177Lu-lilotomab satetraxetan: 0.554

So, CCC(C)n1ncn(-c2ccc(N3CCN(c4ccc(OCC5COC(Cn6cncn6)(c6ccc(Cl)cc6Cl)O5)cc4)CC3)cc2)c1=O (centres undefined) [Itraconazole (Sporanox)] ? Its growth inhibition by drug plus 177Lu-lilotomab satetraxetan was 0.541

Just so you know, measured growth inhibition by drug plus 177Lu-lilotomab satetraxetan for O=C1CN2Cc3c(ccc(Cl)c3Cl)N=C2N1 [Anagrelide hydrochloride] came out at 0.579

***
The value of growth inhibition by drug plus 177Lu-lilotomab satetraxetan measured for the compound CC(=O)O[C@@]12CO[C@@H]1C[C@H](O)[C@@]1(C)C(=O)[C@H](O)C3=C(C)[C@@H](OC(=O)[C@H](O)[C@@H](NC(=O)OC(C)(C)C)c4ccccc4)C[C@@](O)([C@@H](OC(=O)c4ccccc4)[C@H]21)C3(C)C turned out to be 0.985

----------
Tested on: U-2932
method.summary: growth inhibition by drug alone (1 - RLU/untreated control) (fraction); higher = stronger inhibition
measurement.setup: 1000 nM; time (day): 6; 177Lu-lilotomab satetraxetan 0 ug/ml
Counter-ions that a name gives are not always drawn.
metric.name: growth inhibition by drug alone
Provide a numeric answer; units are not to be included.

Record CC1(CN2CCC(n3c(=O)[nH]c4ccccc43)CC2)OCc2ccccc2-n2cccc21 (stereo unspecified) , field growth inhibition by drug alone: -0.115

growth inhibition by drug alone reading for CCc1c2c(nc3ccc(OC(=O)N4CCC(N5CCCCC5)CC4)cc13)-c1cc3c(c(=O)n1C2)COC(=O)[C@]3(O)CC [Irinotecan HCl Trihydrate (Campto)] : 0.976

Entry O=C(c1ccc(OCCN2CCCCC2)cc1)c1c(-c2ccc(O)cc2)sc2cc(O)ccc12 [Evista (Raloxifene Hydrochloride)] , growth inhibition by drug alone reported as -0.132

***
Record Fc1cc(-c2cccc3ncc(-c4cnn(C5CCNCC5)c4)nc23)cc(F)c1CN1CCOCC1 . Reported growth inhibition by drug alone: -0.14

// recorded growth inhibition by drug alone for C[C@@H]1CN(CC(=O)Nc2ccc3c(c2)Cc2cccc(-c4cc(=O)cc(N5CCOCC5)o4)c2S3)C[C@H](C)O1 : -0.17
